# IC50 against UniProt:O94925, merged from multiple literature sources
EXPERIMENTAL_READOUT: IC50

{"COMPOUND": "CC(CC(=O)Nc1nnc(CCCCc2nnc(NC(=O)CC(C)c3ccccc3)s2)s1)c1ccccc1 (centres unmarked)", "TESTED_ON": "UniProt:O94925", "RESULT": "1000 to 10000 nM"}
{"COMPOUND": "O=C(Cc1c[nH]c2ccncc12)Nc1nnc(CCCCc2nnc(NC(=O)Cc3c[nH]c4ccncc34)s2)s1", "TESTED_ON": "UniProt:O94925", "RESULT": "< 100 nM"}
{"COMPOUND": "CC(=O)Nc1ccc(CC(=O)Nc2nnc([C@H]3CCC[C@H](c4nnc(NC(=O)Cc5ccc(NC(C)=O)cc5)s4)C3)s2)cc1 (single isomer, unassigned)", "TESTED_ON": "UniProt:O94925", "RESULT": "< 100 nM"}
{"COMPOUND": "O=C(CCCC(=O)c1ccccc1)Nc1nnc(CCCCc2nnc(NC(=O)CCCC(=O)c3ccccc3)s2)s1", "TESTED_ON": "UniProt:O94925", "RESULT": "< 100 nM"}
{"COMPOUND": "Nc1nnc([C@@H]2CCC[C@@H](c3nnc(NC(=O)Cc4ccccn4)s3)C2)s1", "TESTED_ON": "UniProt:O94925", "RESULT": "1000 to 2000 nM"}
{"COMPOUND": "CCC(=O)Nc1nnc([C@H]2CCC[C@H](c3nnc(NC(=O)CC)s3)C2)s1", "TESTED_ON": "UniProt:O94925", "RESULT": "100 to 500 nM"}
{"COMPOUND": "O=C(Cc1cccnc1)Nc1nnc([C@H]2CCC[C@H](c3nnc(NC(=O)Cc4cccnc4)s3)C2)s1", "TESTED_ON": "UniProt:O94925", "RESULT": "< 100 nM"}
{"COMPOUND": "CS(=O)(=O)c1cccc(CC(=O)Nc2nnc([C@H]3CCC[C@H](c4nnc(NC(=O)Cc5cccc(S(C)(=O)=O)c5)s4)C3)s2)c1", "TESTED_ON": "UniProt:O94925", "RESULT": "< 100 nM"}
{"COMPOUND": "O=C(CCOc1ccccc1)Nc1nnc(CCCCc2nnc(NC(=O)CCOc3ccccc3)s2)s1", "TESTED_ON": "UniProt:O94925", "RESULT": "100 to 500 nM"}
{"COMPOUND": "O=C(Cc1cccnc1)Nc1nnc(C[C@H]2C[C@@H]2Cc2nnc(NC(=O)Cc3cccnc3)s2)s1 (racemic)", "TESTED_ON": "UniProt:O94925", "RESULT": "100 to 500 nM"}
{"COMPOUND": "O=C(Cc1cccc(OC(F)(F)F)c1)Nc1nnc([C@H]2CCC[C@H](c3nnc(NC(=O)[C@@H](O)c4ccccc4)s3)C2)s1", "TESTED_ON": "UniProt:O94925", "RESULT": "< 100 nM"}
{"COMPOUND": "CC(C)(C)OC(=O)Nc1nnc(CCS(=O)(=O)CCc2nnc(NC(=O)OC(C)(C)C)s2)s1", "TESTED_ON": "UniProt:O94925", "RESULT": "100 to 500 nM"}
{"COMPOUND": "O=C(Nc1nnc(CCCCc2nnc(NC(=O)c3cccc4ccccc34)s2)s1)c1cccc2ccccc12", "TESTED_ON": "UniProt:O94925", "RESULT": "100 to 500 nM"}
{"COMPOUND": "O=C(Cc1ccccc1)Nc1nnc(CCS(=O)(=O)CCc2nnc(NC(=O)Cc3ccccc3)s2)s1", "TESTED_ON": "UniProt:O94925", "RESULT": "< 100 nM"}
